assay.method.text: qHTS for Inhibitors of human tyrosyl-DNA phosphodiesterase 1 (TDP1): qHTS in cells in absence of CPT; further: nearly all actives have a fitted effect of over 55% in size
run.conditions: DT40 Tdp1-/- hTDP1 cells, no CPT, ATP luminescence, 48 h
Screen size: about 420,000 compounds; about 64,000 (15%) were called active. Not shown: some 27% with an inconclusive outcome. The call rests on the fitted dose curve; in most records, active means well fitted inhibition curve with a large enough effect; inconclusive means small, poorly fitted or top-dose-only effect; inactive means flat fitted curve, though single readings scatter. Only a sample is shown.
Your response should consist of one outcome taken from active, inactive

Example entries and their recorded answers appear below.
compound	label.class
COC(=O)c1oc2ccc(Br)cc2c1NC(C)=O	inactive
CC(C)(C)C(=O)OCc1nc(-c2ccc(O)c(O)c2)cs1	active
Cc1cc(C)cc(OCC(=O)Nc2nc3ccc([N+](=O)[O-])cc3s2)c1	inactive
COCCn1c(C)cc(C(=O)COC(=O)/C=C/c2cccc(OC)c2)c1C	inactive
O=C(Nc1ccc(Cl)c(Cl)c1)N1CC=C(c2ccccc2)CC1	active

Okay, now this compound:
# input What outcome does the record of this test show for CCc1ccc(OCC2c3cc(OC)c(OC)cc3CCN2C(C)=O)cc1 (stereo unspecified) ?
# output active

* * *

assay.method.text: qHTS for Inhibitors of human tyrosyl-DNA phosphodiesterase 1 (TDP1): qHTS in cells in absence of CPT; further: nearly all actives have a fitted effect of over 55% in size; further: potency means the concentration at half of the fitted maximal effect
run.conditions: DT40 Tdp1-/- hTDP1 cells, no CPT, ATP luminescence, 48 h
About 64,000 (15%) of roughly 420,000 compounds were called active. Inconclusive results (about 27%) are left out. These entries were drawn from the full list.
measure: Potency

compound	Potency
CCOC(=O)N1CCN(C(=O)CNC(=O)Cc2ccc(Cl)cc2)CC1	inactive
COc1cccc(-c2nn(C)c3sc(C(=O)N4CCN(c5ccccc5)CC4)cc23)c1	23.1 µM (active)
O=C(O)C1CCN(C(=O)OCc2ccccc2)CC1	inactive
CC(C(=O)N(C)CC(=O)Nc1ccccc1C(F)(F)F)N1C(=O)c2ccccc2C1=O (stereo unspecified)	inactive
CCOc1ccc(NC(=O)CN(C)C(=O)c2cccc(S(=O)(=O)N3CCCC3)c2)cc1OCC	inactive
Cc1ccc(S(=O)(=O)N2CC(C)N(S(C)(=O)=O)C2)cc1 (stereo unspecified)	inactive

# input Record request: Potency value, item `COC(=O)c1c(-c2cccs2)csc1NC(=O)CSc1ncnc2sc(C)c(C)c12`
# output 20.6 µM (active)

# input Try this compound next: `O=C(NCc1ccco1)c1nc(-c2ccccc2)n(-c2ccccc2)n1`
# output inactive

# input Please answer likewise for `CCOC(=O)N1CCN(C(=O)CSc2ccc(Cl)cc2)CC1`
# output inactive

# input Likewise for `CNC(=S)NNC(=O)c1sccc1OCc1ccccc1` ?
# output inactive

# input Follow-up entry: `CCOC(=O)N1CCN(C(=O)c2cc3c(-c4ccc(Cl)cc4)nn(C)c3s2)CC1`
# output 11.6 µM (active)

# input Now the compound `CCOc1cc(NC(=O)Nc2ccccc2)c(OCC)cc1NC(=O)CC`
# output inactive

# input What do you get for `COc1ccc(NC(=O)CN(C)C(=O)c2cccc(S(=O)(=O)N3CCN(c4ccccc4)CC3)c2)cc1` ?
# output 20.6 µM (active)

# input Same thing, different compound: `C=CCNC(=O)/C(=C\c1cccc([N+](=O)[O-])c1)NC(=O)c1ccccc1`
# output inactive

# input Quick one: `Cc1ccccc1Nc1scc(-c2ccc(Br)cc2)[n+]1-c1ccccc1C`
# output 29.1 µM (active)

# input Try `COc1ccc(CN2CCOC2=O)cc1OC` next.
# output inactive

Numbers sourced from PubChem BioAssay AID686978.
